- Tested system: Indoleamine 2,3-dioxygenase 1 (Homo sapiens, UniProt P14902)
- Sequence (P14902 whole entry): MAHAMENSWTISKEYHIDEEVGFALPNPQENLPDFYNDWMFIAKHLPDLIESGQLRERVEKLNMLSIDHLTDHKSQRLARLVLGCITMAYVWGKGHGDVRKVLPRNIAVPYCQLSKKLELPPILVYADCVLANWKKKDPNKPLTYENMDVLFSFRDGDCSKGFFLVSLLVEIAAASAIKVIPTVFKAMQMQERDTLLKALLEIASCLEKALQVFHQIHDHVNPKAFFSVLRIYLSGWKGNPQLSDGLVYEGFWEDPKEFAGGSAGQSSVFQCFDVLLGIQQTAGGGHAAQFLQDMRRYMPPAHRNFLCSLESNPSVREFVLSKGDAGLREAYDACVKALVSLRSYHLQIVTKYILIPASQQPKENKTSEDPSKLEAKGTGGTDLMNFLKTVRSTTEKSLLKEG
- Protocol description: Inhibition of recombinant human IDO1 expressed in Escherichia coli Rosetta (DE3) cells assessed as reduction in kynurenine production using L-tryptophan as substrate incubated for 20 mins by HPLC analysis
I'd be grateful if you could share measured pIC50 for these entries.
One number for each entry, as −log10 of the molar value.

// known answers, use as guide
>>> df
            molecule_smiles  reported_measurement
0    Cn1cncc1-c1cc(Cl)ccc1O                  4.77
1     Oc1ccc(Cl)cc1-n1ccnc1                  5.68
2      Nc1ccccc1-c1c[nH]nn1                  4.48
3      Nc1ccccc1-c1cnc[nH]1                  4.74
4  Nc1ccc(Cl)cc1-c1nnc[nH]1                  7.46

Field: pIC50. Fill in for each record below.
1. Oc1ccccc1-c1c[nH]nn1
2. Nc1ccc(Cl)cc1-c1cnn[nH]1

Given back:
5.64
5.82

----------
- Tested system: Indoleamine 2,3-dioxygenase 1 (Homo sapiens)
- Protocol description: Inhibition of recombinant human IDO1 expressed in Escherichia coli Rosetta (DE3) cells assessed as reduction in kynurenine production using L-tryptophan as substrate at pH 7.4 incubated for 20 mins by HPLC analysis
Result type: IC50 (µM)
Numbers only, in µM.

Asked: Param readout = IC50; param system = Indoleamine 2,3-dioxygenase 1 (Homo sapiens); param query = c1ccc(-c2nc[nH]n2)cc1 ; response: value
Given back: 580

----------
- Tested system: Indoleamine 2,3-dioxygenase 1 (Homo sapiens, UniProt P14902)
- Protocol description: Inhibition of recombinant human IDO1 expressed in Escherichia coli Rosetta (DE3) cells assessed as reduction in kynurenine production using L-tryptophan as substrate incubated for 20 mins by HPLC analysis
I'd be grateful if you could share measured pIC50 for these entries.
One number for each entry, as −log10 of the molar value.

>>> df
            molecule_smiles  result_type  reported_measurement
0   Clc1cccc(-c2c[nH]nn2)c1        pIC50                  6.46
1  Oc1ccc(Cl)cc1-c1nnn[nH]1        pIC50                  4.80

Field: pIC50. Fill in for each record below.
1. Oc1ccccc1-c1nnn[nH]1
2. Nc1ccc(Br)cc1-c1nc[nH]n1
3. Cn1cncc1-c1cccc(Cl)c1
4. Cn1cncc1-c1cc(Cl)ccc1N
5. Nc1ccccc1-n1ccnc1
6. Clc1cccc(-c2nnc[nH]2)c1
7. Oc1ccccc1-c1nnc[nH]1

Given back:
3.15
7.70
4.89
2.92
2.89
4.51
4.51

Field: pIC50. Fill in for each record below.
1. Nc1ccccc1-c1nnc[nH]1
2. Nc1ccccc1-c1nnn[nH]1
3. Nc1ccc(Cl)cc1-c1cnc[nH]1
4. Cn1cncc1-c1ccccc1N
5. Clc1cccc(-c2nnn[nH]2)c1
6. Oc1ccccc1-n1ccnc1
7. Cn1cncc1-c1ccccc1O
8. Clc1cccc(-n2ccnc2)c1

Given back:
[5.70, 5.24, 4.92, 2.77, 4.00, 4.80, 4.42, 4.39]

Field: pIC50. Fill in for each record below.
1. Oc1ccc(Cl)cc1-c1nnc[nH]1
2. Clc1cccc(-c2cnc[nH]2)c1
3. Nc1ccc(Cl)cc1-c1nnn[nH]1

Given back:
6.22
5.59
6.66

Asked: Would you kindly share the measured pIC50 for Nc1ccc(Cl)cc1-n1ccnc1 ?
Given back: 4.06
